- ASSAY REMARKS: Pharmacokinetics of CorA in plasma of CD-1 mice
- Format: in vivo
- RUN PARAMETERS: female, mouse; plasma; 60 mg/kg IP; CD-1 mice; mean ± SD
RECORDED METRIC: MRT (h)
Report the value in h with no unit label.

# input What value of MRT has been recorded for this entry: C/C=C/C/C=C(\C)C(O)CC/C(C)=C/C=C(\C)C(=O)c1c(O)cc([C@H](C)CC/C=C/NC(=O)OC)oc1=O (stereo partly shown)
# output 1.55

---

- ASSAY REMARKS: Biodistribution of CorA to organs/tissues of CD-1 mice (LC-MS/MS)
- Assay type: in vivo
- RUN PARAMETERS: female, CD-1, mouse; liver; 60 mg/kg IP
RECORDED METRIC: Cmax (ng/g)
Report the value in ng/g with no unit label.

# input What value of Cmax has been recorded for this entry: C/C=C/C/C=C(\C)C(O)CC/C(C)=C/C=C(\C)C(=O)c1c(O)cc([C@H](C)CC/C=C/NC(=O)OC)oc1=O (stereo partly shown) [CorA, Corallopyronin A]
# output 430

---

- ASSAY REMARKS: Pharmacokinetics of CorA in plasma of CD-1 mice
- Assay type: in vivo
- RUN PARAMETERS: female, mouse; plasma; 30 mg/kg IP (BID); CD-1 mice; mean ± SD; read-out: Vz/F_obs
RECORDED METRIC: Vd/F (L/kg)
Report the value in L/kg with no unit label.

# input What value of Vd/F has been recorded for this entry: C/C=C/C/C=C(\C)C(O)CC/C(C)=C/C=C(\C)C(=O)c1c(O)cc([C@H](C)CC/C=C/NC(=O)OC)oc1=O (stereo partly shown) [CorA, Corallopyronin A]
# output 0.18

---

- ASSAY REMARKS: Biodistribution of CorA to organs/tissues of CD-1 mice (LC-MS/MS)
- Format: in vivo
- RUN PARAMETERS: female, CD-1, mouse; kidney; 30 mg/kg IP
- Description: For pharmacokinetic (PK) experiments, 6–8-week-old outbred female CD-1 mice (Charles River, Germany) were used. CorA was dissolved in PEG400/phosphate-buffered saline (PBS) (80:20 (v/v)). CorA was administered once daily at 60 mg/kg intraperitoneally (IP), 100 mg/kg IP, 100 mg/kg subcutaneously (SC) and 100 mg/kg perorally (PO). Moreover, CorA was administered at 30 mg/kg IP twice a day (BID) (administration time points t = 0 and 6 h after first dose). […]
RECORDED METRIC: Cmax (ng/g)
Report the value in ng/g with no unit label.

# input What value of Cmax has been recorded for this entry: C/C=C/C/C=C(\C)C(O)CC/C(C)=C/C=C(\C)C(=O)c1c(O)cc([C@H](C)CC/C=C/NC(=O)OC)oc1=O (stereo partly shown) [CorA, Corallopyronin A]
# output 700

---

- ASSAY REMARKS: Pharmacokinetics of CorA in plasma of CD-1 mice
- Assay type: in vivo
- RUN PARAMETERS: female, mouse; plasma; 30 mg/kg IP (BID); CD-1 mice; mean ± SD
RECORDED METRIC: MRT (h)
Report the value in h with no unit label.

# input What value of MRT has been recorded for this entry: C/C=C/C/C=C(\C)C(O)CC/C(C)=C/C=C(\C)C(=O)c1c(O)cc([C@H](C)CC/C=C/NC(=O)OC)oc1=O (stereo partly shown)
# output 3.61

---

- ASSAY REMARKS: Biodistribution of CorA to organs/tissues of CD-1 mice (LC-MS/MS)
- Format: in vivo
- RUN PARAMETERS: female, CD-1, mouse; 100 mg/kg PO; thigh, heart, kidney, spleen, lung, liver, fat, rectum, pharynx, vaginal tract, skin, tibia; read-out: time of peak concentration in the investigated tissues
RECORDED METRIC: Tmax

# input What value of Tmax has been recorded for this entry: C/C=C/C/C=C(\C)C(O)CC/C(C)=C/C=C(\C)C(=O)c1c(O)cc([C@H](C)CC/C=C/NC(=O)OC)oc1=O (stereo partly shown) [CorA, Corallopyronin A]
# output 15 to 30 min

---

- ASSAY REMARKS: Biodistribution of CorA to organs/tissues of CD-1 mice (LC-MS/MS)
- Assay type: in vivo
- RUN PARAMETERS: female, CD-1, mouse; heart; 100 mg/kg IP
RECORDED METRIC: Cmax (ng/g)
Report the value in ng/g with no unit label.

# input What value of Cmax has been recorded for this entry: C/C=C/C/C=C(\C)C(O)CC/C(C)=C/C=C(\C)C(=O)c1c(O)cc([C@H](C)CC/C=C/NC(=O)OC)oc1=O (stereo partly shown)
# output 3100

---

- ASSAY REMARKS: Biodistribution of CorA to organs/tissues of CD-1 mice (LC-MS/MS)
- Assay type: in vivo
- RUN PARAMETERS: female, CD-1, mouse; heart; 30 mg/kg IP
RECORDED METRIC: Cmax
Units required after the number.

# input What value of Cmax has been recorded for this entry: C/C=C/C/C=C(\C)C(O)CC/C(C)=C/C=C(\C)C(=O)c1c(O)cc([C@H](C)CC/C=C/NC(=O)OC)oc1=O (stereo partly shown) [CorA, Corallopyronin A]
# output 1100 ng/g

---

- ASSAY REMARKS: Biodistribution of CorA to organs/tissues of CD-1 mice (LC-MS/MS)
- Type: in vivo
- RUN PARAMETERS: female, CD-1, mouse, thigh muscle; thigh; 60 mg/kg IP
RECORDED METRIC: Cmax (ng/g)
Report the value in ng/g with no unit label.

# input What value of Cmax has been recorded for this entry: C/C=C/C/C=C(\C)C(O)CC/C(C)=C/C=C(\C)C(=O)c1c(O)cc([C@H](C)CC/C=C/NC(=O)OC)oc1=O (stereo partly shown)
# output 300

---

- ASSAY REMARKS: Pharmacokinetics of CorA in plasma of CD-1 mice
- Type: in vivo
- RUN PARAMETERS: female, mouse; plasma; 60 mg/kg IP; CD-1 mice; mean ± SD; read-out: Vz/F_obs
RECORDED METRIC: Vd/F (L/kg)
Report the value in L/kg with no unit label.

# input What value of Vd/F has been recorded for this entry: C/C=C/C/C=C(\C)C(O)CC/C(C)=C/C=C(\C)C(=O)c1c(O)cc([C@H](C)CC/C=C/NC(=O)OC)oc1=O (stereo partly shown) [CorA, Corallopyronin A]
# output 0.17

---

- ASSAY REMARKS: Pharmacokinetics of CorA in plasma of CD-1 mice
- Type: in vivo
- RUN PARAMETERS: female, mouse; plasma; 60 mg/kg IP; CD-1 mice; mean ± SD
- Protocol: For pharmacokinetic (PK) experiments, 6–8-week-old outbred female CD-1 mice (Charles River, Germany) were used. CorA was dissolved in PEG400/phosphate-buffered saline (PBS) (80:20 (v/v)). […] CorA plasma concentrations were quantified by HPLC-DAD with an Alliance e2695 separation module and a 2998 PDA detector (Waters, Eschborn, Germany). […] The supernatant was transferred into a HPLC vial and a sample volume of 5 µL was injected and quantified at a wavelength of 300 nm. […]
RECORDED METRIC: CL/F

# input What value of CL/F has been recorded for this entry: C/C=C/C/C=C(\C)C(O)CC/C(C)=C/C=C(\C)C(=O)c1c(O)cc([C@H](C)CC/C=C/NC(=O)OC)oc1=O (stereo partly shown)
# output 1.8 mL/min/kg

---

- ASSAY REMARKS: Biodistribution of CorA to organs/tissues of CD-1 mice (LC-MS/MS)
- Type: in vivo
- RUN PARAMETERS: female, CD-1, mouse, thigh muscle; thigh; 100 mg/kg IP
RECORDED METRIC: Cmax (ng/g)
Report the value in ng/g with no unit label.

# input What value of Cmax has been recorded for this entry: C/C=C/C/C=C(\C)C(O)CC/C(C)=C/C=C(\C)C(=O)c1c(O)cc([C@H](C)CC/C=C/NC(=O)OC)oc1=O (stereo partly shown)
# output 700

---

- ASSAY REMARKS: Pharmacokinetics of CorA in plasma of CD-1 mice
- Assay type: in vivo
- RUN PARAMETERS: female, mouse; plasma; 60 mg/kg IP; CD-1 mice; mean ± SD
RECORDED METRIC: Cmax
Units required after the number.

# input What value of Cmax has been recorded for this entry: C/C=C/C/C=C(\C)C(O)CC/C(C)=C/C=C(\C)C(=O)c1c(O)cc([C@H](C)CC/C=C/NC(=O)OC)oc1=O (stereo partly shown) [CorA, Corallopyronin A]
# output 416 µg/mL

---

- ASSAY REMARKS: Pharmacokinetics of CorA in plasma of CD-1 mice
- Format: in vivo
- RUN PARAMETERS: female, mouse; plasma; 100 mg/kg IP; CD-1 mice; mean ± SD
RECORDED METRIC: Cmax (µg/mL)
Report the value in µg/mL with no unit label.

# input What value of Cmax has been recorded for this entry: C/C=C/C/C=C(\C)C(O)CC/C(C)=C/C=C(\C)C(=O)c1c(O)cc([C@H](C)CC/C=C/NC(=O)OC)oc1=O (stereo partly shown)
# output 349
